Hello, the source for this data is paper PMC10786891, in case you need it.

Molecular target: T1, EsCas13d, nuclease-dead (Eubacterium siraeum, UniProt B0MS50, R295A;H300A;R849A;H854A)
T1 sequence: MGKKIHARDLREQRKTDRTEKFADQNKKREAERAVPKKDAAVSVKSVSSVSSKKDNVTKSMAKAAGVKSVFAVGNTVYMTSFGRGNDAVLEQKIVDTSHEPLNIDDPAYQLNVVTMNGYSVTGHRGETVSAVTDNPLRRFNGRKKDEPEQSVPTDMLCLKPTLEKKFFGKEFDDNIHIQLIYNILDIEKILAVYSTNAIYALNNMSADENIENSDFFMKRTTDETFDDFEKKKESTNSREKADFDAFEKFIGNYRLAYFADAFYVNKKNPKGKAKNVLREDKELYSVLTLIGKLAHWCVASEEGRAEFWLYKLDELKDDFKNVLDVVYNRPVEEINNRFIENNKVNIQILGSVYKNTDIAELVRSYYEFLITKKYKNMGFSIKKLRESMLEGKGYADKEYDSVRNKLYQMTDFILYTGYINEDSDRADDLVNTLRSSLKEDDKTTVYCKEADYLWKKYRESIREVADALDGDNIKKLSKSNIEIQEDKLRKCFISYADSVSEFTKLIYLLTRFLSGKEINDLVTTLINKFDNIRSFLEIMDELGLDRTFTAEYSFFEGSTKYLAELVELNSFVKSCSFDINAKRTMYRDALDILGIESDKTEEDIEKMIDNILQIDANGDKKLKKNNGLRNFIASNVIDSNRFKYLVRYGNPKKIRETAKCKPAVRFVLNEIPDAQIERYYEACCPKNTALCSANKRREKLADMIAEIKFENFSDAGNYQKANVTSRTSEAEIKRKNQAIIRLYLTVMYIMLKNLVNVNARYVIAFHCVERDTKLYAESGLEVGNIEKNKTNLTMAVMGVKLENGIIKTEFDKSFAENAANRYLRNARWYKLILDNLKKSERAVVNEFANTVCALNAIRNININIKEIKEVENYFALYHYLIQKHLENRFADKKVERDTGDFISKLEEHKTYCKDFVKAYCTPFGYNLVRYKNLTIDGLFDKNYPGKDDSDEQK
Experiment: crRNA (strand 1, pre-loaded); Mg2+; 40 mM Tris-HCl pH 7.5, 150 mM NaCl, 6 mM MgCl2, 1 mM DTT, 0.1% Tween-20, 0.2 mg/ml BSA; 25 C; 10 min per concentration, then washed
Conditions: tags: His6-TwinStrep-SUMO cleaved; N-terminal SNAP kept (SNAP-Surface 488); label: 3' end held by stalled T7 RNA polymerase
Attribute Measured: Kd (µM)
One number for each entry, in µM.

target 1 insG 3' of 14,insA 3' of 13 (mixed) RNA 1: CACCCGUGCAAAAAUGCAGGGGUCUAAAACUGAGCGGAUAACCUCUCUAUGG RNA 2: GGGAAUGGAUCCACAUCUACGAAUUCGUACCAUAGAGAGGAGUUAUCCGCUCACCGAGAUCGGAAGAGCACACGU : 0.0109

As a next step, examine the binder that follows.
Recorded result, target 1 insA 3' of 22,insG 3' of 14 (mixed) RNA 1: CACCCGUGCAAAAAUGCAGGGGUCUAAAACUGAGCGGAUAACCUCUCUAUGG RNA 2: GGGAAUGGAUCCACAUCUACGAAUUCGUACACAUAGAGAGGGUUAUCCGCUCACCGAGAUCGGAAGAGCACACGU , Kd: 0.0217
